Hello, the source for this data is paper PMC8200971, in case you need it.

Test system: Hek293 (human embryonic kidney cell lines)
experimental.details: CCK8 cytotoxicity assay, normal cells
Type: cell-based
assay.conditions: Homo sapiens, HEK293, 60 h, read-out: growth inhibition ratio (mean ± SD)
measured.quantity: inhibition at 2.5 µM (%)
Answers are plain numbers, in %.

COC1=C[C@@H]2[C@@H]3Cc4c(CN5CCCC5)cc(OC)c(OC(=O)Cc5ccccc5OC)c4[C@]2(CCN3C)CC1=O; 13.9
COC1=C[C@@H]2[C@@H]3Cc4c(CN5CCCC5)cc(OC)c(OC(=O)Cc5cccc(Cl)c5)c4[C@]2(CCN3C)CC1=O; 14.4
COC1=C[C@@H]2[C@@H]3Cc4c(CN5CCCC5)cc(OC)c(OC(=O)Cc5ccc(Cl)c(Cl)c5)c4[C@]2(CCN3C)CC1=O; 9.72
COC1=C[C@@H]2[C@@H]3Cc4c(CN5CCCC5)cc(OC)c(OC(=O)Cc5ccc(Cl)cc5)c4[C@]2(CCN3C)CC1=O; 17.9

From here, focus on the item given below.
Q: Look up inhibition at 2.5 µM: COC1=C[C@@H]2[C@@H]3Cc4c(CN5CCCC5)cc(OC)c(OC(=O)Cc5ccccc5F)c4[C@]2(CCN3C)CC1=O
A: 12.7
